# experimentalDetails: AUC (0 to 6 hrs) in rat at 3 mg/kg, po
# Assay type: ADME, organism-based
# Set-up: time < 6 hr, dose 3 mg/kg, route oral
# experimentalParameters: plasma

{"columns": ["smilesRepr", "AUC(0-t) at 6 h"],
 "data": [
  ["Nc1nc2c(cnn2CCN2CCc3ncc(C4CC4)cc3C2)c2nc(-c3ccco3)nn12", "214 ng·h/mL"],
  ["Nc1nc2c(cnn2CCN2CCc3nc(C(F)(F)F)ccc3C2)c2nc(-c3ccco3)nn12", "1240 ng·h/mL"],
  ["Nc1nc2c(cnn2CCN2CCc3ccccc3C2)c2nc(-c3ccco3)nn12", "60 ng·h/mL"],
  ["COCCOc1cnc2c(c1)CN(CCn1ncc3c1nc(N)n1nc(-c4ccco4)nc31)CC2", "477 ng·h/mL"],
  ["Cc1cnc2c(c1)CN(CCn1ncc3c1nc(N)n1nc(-c4ccco4)nc31)CC2", "3490 ng·h/mL"],
  ["Nc1nc2c(cnn2CCN2CCc3ncccc3C2)c2nc(-c3ccco3)nn12", "1790 ng·h/mL"],
  ["COCCOc1cccc2c1CN(CCn1ncc3c1nc(N)n1nc(-c4ccco4)nc31)C2", "215 ng·h/mL"],
  ["COc1ccc2c(c1)CCN(CCn1ncc3c1nc(N)n1nc(-c4ccco4)nc31)C2", "688 ng·h/mL"],
  ["COCCOc1cccc2c1CN(CCn1ncc3c1nc(N)n1nc(-c4ccco4)nc31)CC2", "31 ng·h/mL"],
  ["Nc1nc2c(cnn2CCN2CCc3ncc(Br)cc3C2)c2nc(-c3ccco3)nn12", "2020 ng·h/mL"],
  ["Nc1nc2c(cnn2CCN2CCc3ncncc3C2)c2nc(-c3ccco3)nn12", "467 ng·h/mL"],
  ["Nc1nc2c(cnn2CCN2Cc3ccccc3C2)c2nc(-c3ccco3)nn12", "287 ng·h/mL"],
  ["COc1ccc2c(c1)CN(CCn1ncc3c1nc(N)n1nc(-c4ccco4)nc31)CC2", "357 ng·h/mL"],
  ["Nc1nc2c(cnn2CCN2CCc3ccccc3CC2)c2nc(-c3ccco3)nn12", "48 ng·h/mL"],
  ["COCCOc1ccc2c(c1)CCN(CCn1ncc3c1nc(N)n1nc(-c4ccco4)nc31)CC2", "103 ng·h/mL"],
  ["COc1ccc2c(c1)CN(CCn1ncc3c1nc(N)n1nc(-c4ccco4)nc31)C2", "199 ng·h/mL"]
]}

The measurements presented in this section are drawn from ChEMBL document CHEMBL1155013.
